# Tested on: S. aureus VRSA
# assay-remarks: MIC, broth microdilution, vancomycin-resistant S. aureus (VRSA)
# Type: cell-based, Staphylococcus aureus
# stated-conditions: VRSA; ratio of MIC of vancomycin and MIC of analogue
value-type: MIC-fold improvement vs. vancomycin
// return just the number, without any unit appended

// known answers, use as guide
>>> result_value("CN[C@H](CC(C)C)C(=O)N[C@H]1C(=O)N[C@@H](CC(N)=O)C(=O)N[C@H]2C(=O)N[C@H]3C(=O)N[C@H](C(=O)N[C@H](C(=O)NCC(=O)Nc4ccc(C)cc4)c4cc(O)cc(O)c4-c4cc3ccc4O)[C@H](O)c3ccc(c(Cl)c3)Oc3cc2cc(c3O[C@@H]2O[C@H](CO)[C@@H](O)[C@H](O)[C@H]2O[C@H]2C[C@](C)(N)[C@H](O)[C@H](C)O2)Oc2ccc(cc2Cl)[C@H]1O")
16
>>> result_value("CNC(CC(C)C)C(=O)NC1C(=O)NC(CC(N)=O)C(=O)NC2C(=O)NC3C(=O)NC(C(=O)NC(C(=O)NCCCNC(=O)c4cc5cc(F)ccc5[nH]4)c4cc(O)cc(O)c4-c4cc3ccc4O)C(O)c3ccc(c(Cl)c3)Oc3cc2cc(c3OC2OC(CO)C(O)C(O)C2OC2CC(C)(N)C(O)C(C)O2)Oc2ccc(cc2Cl)C1O (stereo not drawn)")
64

IN: # get_value(readout='MIC-fold improvement vs. vancomycin', item= CNC(CC(C)C)C(=O)NC1C(=O)NC(CC(N)=O)C(=O)NC2C(=O)NC3C(=O)NC(C(=O)NC(C(=O)NCCCNC(=O)c4ccc(-c5ccc(F)cc5)cc4)c4cc(O)cc(O)c4-c4cc3ccc4O)C(O)c3ccc(c(Cl)c3)Oc3cc2cc(c3OC2OC(CO)C(O)C(O)C2OC2CC(C)(N)C(O)C(C)O2)Oc2ccc(cc2Cl)C1O (stereo not drawn) )
OUT: 128

###

# System: E. faecalis VRE 53
# assay-remarks: MIC, broth microdilution, vancomycin-resistant E. faecalis VRE 53 (VanA)
# Assay type: cell-based, Enterococcus faecalis
# stated-conditions: Enterococcus faecalis VRE 53 (vancomycin-resistant); read-out: MIC
The following compounds are listed with their measured MIC values.
Return type: number; implicit unit µM.

>>> result_value("CNC(CC(C)C)C(=O)NC1C(=O)NC(CC(N)=O)C(=O)NC2C(=O)NC3C(=O)NC(C(=O)NC(C(=O)NCCCNC(=O)c4cc5ccccc5o4)c4cc(O)cc(O)c4-c4cc3ccc4O)C(O)c3ccc(c(Cl)c3)Oc3cc2cc(c3OC2OC(CO)C(O)C(O)C2OC2CC(C)(N)C(O)C(C)O2)Oc2ccc(cc2Cl)C1O (centres unmarked) [Vanc-25]")
25
>>> result_value("CNC(CC(C)C)C(=O)NC1C(=O)NC(CC(N)=O)C(=O)NC2C(=O)NC3C(=O)NC(C(=O)NC(C(=O)NCCCNC(=O)c4nc5ccccc5[nH]4)c4cc(O)cc(O)c4-c4cc3ccc4O)C(O)c3ccc(c(Cl)c3)Oc3cc2cc(c3OC2OC(CO)C(O)C(O)C2OC2CC(C)(N)C(O)C(C)O2)Oc2ccc(cc2Cl)C1O (centres unmarked) [Vanc-52]")
25
>>> result_value("C#Cc1ccc(-c2ccc(C(=O)NCCCNC(=O)[C@H]3NC(=O)[C@H]4NC(=O)[C@H](NC(=O)[C@@H]5NC(=O)[C@H](CC(N)=O)NC(=O)[C@H](NC(=O)[C@@H](CC(C)C)NC)[C@H](O)c6ccc(c(Cl)c6)Oc6cc5cc(c6O[C@@H]5O[C@H](CO)[C@@H](O)[C@H](O)[C@H]5O[C@H]5C[C@](C)(N)[C@H](O)[C@H](C)O5)Oc5ccc(cc5Cl)[C@H]4O)c4ccc(O)c(c4)-c4c(O)cc(O)cc43)cc2)cc1 [Vanc-S]")
3.13
>>> result_value("CNC(CC(C)C)C(=O)NC1C(=O)NC(CC(N)=O)C(=O)NC2C(=O)NC3C(=O)NC(C(=O)NC(C(=O)NCC(=O)Nc4ccc(-c5cn(-c6ccc(C)cc6)nn5)cc4)c4cc(O)cc(O)c4-c4cc3ccc4O)C(O)c3ccc(c(Cl)c3)Oc3cc2cc(c3OC2OC(CO)C(O)C(O)C2OC2CC(C)(N)C(O)C(C)O2)Oc2ccc(cc2Cl)C1O (centres unmarked) [Vanc-76]")
3.13
>>> result_value("C#Cc1ccc2cc(C(=O)NCCCNC(=O)[C@H]3NC(=O)[C@H]4NC(=O)[C@H](NC(=O)[C@@H]5NC(=O)[C@H](CC(N)=O)NC(=O)[C@H](NC(=O)[C@@H](CC(C)C)NC)[C@H](O)c6ccc(c(Cl)c6)Oc6cc5cc(c6O[C@@H]5O[C@H](CO)[C@@H](O)[C@H](O)[C@H]5O[C@H]5C[C@](C)(N)[C@H](O)[C@H](C)O5)Oc5ccc(cc5Cl)[C@H]4O)c4ccc(O)c(c4)-c4c(O)cc(O)cc43)ccc2c1 [Vanc-T]")
3.13
>>> result_value("CNC(CC(C)C)C(=O)NC1C(=O)NC(CC(N)=O)C(=O)NC2C(=O)NC3C(=O)NC(C(=O)NC(C(=O)NCC(=O)Nc4ccc(-c5ccc(OC)cc5)cc4)c4cc(O)cc(O)c4-c4cc3ccc4O)C(O)c3ccc(c(Cl)c3)Oc3cc2cc(c3OC2OC(CO)C(O)C(O)C2OC2CC(C)(N)C(O)C(C)O2)Oc2ccc(cc2Cl)C1O (centres unmarked) [Vanc-57]")
12.5
>>> result_value("C#CCCC(=O)NCCCNC(=O)C1NC(=O)C2NC(=O)C(NC(=O)C3NC(=O)C(CC(N)=O)NC(=O)C(NC(=O)C(CC(C)C)NC)C(O)c4ccc(c(Cl)c4)Oc4cc3cc(c4OC3OC(CO)C(O)C(O)C3OC3CC(C)(N)C(O)C(C)O3)Oc3ccc(cc3Cl)C2O)c2ccc(O)c(c2)-c2c(O)cc(O)cc21 (centres unmarked) [Vanc-B]")
12.5

IN: Query for E. faecalis VRE 53: what MIC does the record show for CN[C@H](CC(C)C)C(=O)N[C@H]1C(=O)N[C@@H](CC(N)=O)C(=O)N[C@H]2C(=O)N[C@H]3C(=O)N[C@H](C(=O)N[C@H](C(=O)NCC(=O)Nc4ccc(F)cc4F)c4cc(O)cc(O)c4-c4cc3ccc4O)[C@H](O)c3ccc(c(Cl)c3)Oc3cc2cc(c3O[C@@H]2O[C@H](CO)[C@@H](O)[C@H](O)[C@H]2O[C@H]2C[C@](C)(N)[C@H](O)[C@H](C)O2)Oc2ccc(cc2Cl)[C@H]1O [Vanc-16] ?
OUT: 25

###

# System: E. faecalis VRE 53
# assay-remarks: MIC, broth microdilution, vancomycin-resistant E. faecalis VRE 53 (VanA)
# Type: cell-based, Enterococcus faecalis
# stated-conditions: Enterococcus faecalis VRE 53 (vancomycin-resistant); read-out: MIC
The following compounds are listed with their measured MIC values.
Return type: number; implicit unit µM.

// known answers, use as guide
>>> result_value("CCCCCCCCCC(=O)N[C@@H](Cc1c[nH]c2ccccc12)C(=O)N[C@H](CC(N)=O)C(=O)N[C@@H](CC(=O)O)C(=O)N[C@@H]1C(=O)NCC(=O)N[C@@H](CCCN)C(=O)N[C@@H](CC(=O)O)C(=O)N[C@H](C)C(=O)N[C@@H](CC(=O)O)C(=O)NCC(=O)N[C@H](CO)C(=O)N[C@@H]([C@H](C)CC(=O)O)C(=O)N[C@@H](CC(=O)c2ccccc2N)C(=O)O[C@@H]1C [Daptomycin, reference compound]")
50
>>> result_value("CNC(CC(C)C)C(=O)NC1C(=O)NC(CC(N)=O)C(=O)NC2C(=O)NC3C(=O)NC(C(=O)NC(C(=O)NCC(=O)Nc4ccc(C(=O)NCCCN(C)C)cc4)c4cc(O)cc(O)c4-c4cc3ccc4O)C(O)c3ccc(c(Cl)c3)Oc3cc2cc(c3OC2OC(CO)C(O)C(O)C2OC2CC(C)(N)C(O)C(C)O2)Oc2ccc(cc2Cl)C1O (centres unmarked)")
50
>>> result_value("CCCCOc1ccc(C(=O)NCCCNC(=O)C2NC(=O)C3NC(=O)C(NC(=O)C4NC(=O)C(CC(N)=O)NC(=O)C(NC(=O)C(CC(C)C)NC)C(O)c5ccc(c(Cl)c5)Oc5cc4cc(c5OC4OC(CO)C(O)C(O)C4OC4CC(C)(N)C(O)C(C)O4)Oc4ccc(cc4Cl)C3O)c3ccc(O)c(c3)-c3c(O)cc(O)cc32)cc1 (centres unmarked)")
12.5
>>> result_value("CN[C@H](CC(C)C)C(=O)N[C@H]1C(=O)N[C@@H](CC(N)=O)C(=O)N[C@H]2C(=O)N[C@H]3C(=O)N[C@H](C(=O)N[C@H](C(=O)NCC(=O)Nc4ccc(-c5cn(-c6ccccc6)nn5)cc4)c4cc(O)cc(O)c4-c4cc3ccc4O)[C@H](O)c3ccc(c(Cl)c3)Oc3cc2cc(c3O[C@@H]2O[C@H](CO)[C@@H](O)[C@H](O)[C@H]2O[C@H]2C[C@](C)(N)[C@H](O)[C@H](C)O2)Oc2ccc(cc2Cl)[C@H]1O")
6.25
>>> result_value("CN[C@H](CC(C)C)C(=O)N[C@H]1C(=O)N[C@@H](CC(N)=O)C(=O)N[C@H]2C(=O)N[C@H]3C(=O)N[C@H](C(=O)N[C@H](C(=O)NCC(=O)Nc4cc(OC)cc(OC)c4)c4cc(O)cc(O)c4-c4cc3ccc4O)[C@H](O)c3ccc(c(Cl)c3)Oc3cc2cc(c3O[C@@H]2O[C@H](CO)[C@@H](O)[C@H](O)[C@H]2O[C@H]2C[C@](C)(N)[C@H](O)[C@H](C)O2)Oc2ccc(cc2Cl)[C@H]1O")
25
>>> result_value("CN[C@H](CC(C)C)C(=O)N[C@H]1C(=O)N[C@@H](CC(N)=O)C(=O)N[C@H]2C(=O)N[C@H]3C(=O)N[C@H](C(=O)N[C@H](C(=O)NCCNC(=O)/C=C/c4ccc(Cl)cc4)c4cc(O)cc(O)c4-c4cc3ccc4O)[C@H](O)c3ccc(c(Cl)c3)Oc3cc2cc(c3O[C@@H]2O[C@H](CO)[C@@H](O)[C@H](O)[C@H]2O[C@H]2C[C@](C)(N)[C@H](O)[C@H](C)O2)Oc2ccc(cc2Cl)[C@H]1O")
12.5
>>> result_value("CNC(CC(C)C)C(=O)NC1C(=O)NC(CC(N)=O)C(=O)NC2C(=O)NC3C(=O)NC(C(=O)NC(C(=O)NCCCNC(=O)c4ccc5cc(NS(=O)(=O)c6ccc(C(C)C)cc6)ccc5c4)c4cc(O)cc(O)c4-c4cc3ccc4O)C(O)c3ccc(c(Cl)c3)Oc3cc2cc(c3OC2OC(CO)C(O)C(O)C2OC2CC(C)(N)C(O)C(C)O2)Oc2ccc(cc2Cl)C1O (centres unmarked)")
25
>>> result_value("CN[C@H](CC(C)C)C(=O)N[C@H]1C(=O)N[C@@H](CC(N)=O)C(=O)N[C@H]2C(=O)N[C@H]3C(=O)N[C@H](C(=O)N[C@H](C(=O)NCC(=O)Nc4ccc(OC)c(OC)c4)c4cc(O)cc(O)c4-c4cc3ccc4O)[C@H](O)c3ccc(c(Cl)c3)Oc3cc2cc(c3O[C@@H]2O[C@H](CO)[C@@H](O)[C@H](O)[C@H]2O[C@H]2C[C@](C)(N)[C@H](O)[C@H](C)O2)Oc2ccc(cc2Cl)[C@H]1O")
12.5
>>> result_value("CNC(CC(C)C)C(=O)NC1C(=O)NC(CC(N)=O)C(=O)NC2C(=O)NC3C(=O)NC(C(=O)NC(C(=O)NCCCNC(=O)c4cc5ccccc5[nH]4)c4cc(O)cc(O)c4-c4cc3ccc4O)C(O)c3ccc(c(Cl)c3)Oc3cc2cc(c3OC2OC(CO)C(O)C(O)C2OC2CC(C)(N)C(O)C(C)O2)Oc2ccc(cc2Cl)C1O (centres unmarked)")
25
>>> result_value("CNC(CC(C)C)C(=O)NC1C(=O)NC(CC(N)=O)C(=O)NC2C(=O)NC3C(=O)NC(C(=O)NC(C(=O)NCC(=O)Nc4ccc(-c5cnnn5C5OC(COC(C)=O)C(OC(C)=O)C(OC(C)=O)C5OC(C)=O)cc4)c4cc(O)cc(O)c4-c4cc3ccc4O)C(O)c3ccc(c(Cl)c3)Oc3cc2cc(c3OC2OC(CO)C(O)C(O)C2OC2CC(C)(N)C(O)C(C)O2)Oc2ccc(cc2Cl)C1O (centres unmarked)")
50

# next compound below
IN: # get_value(readout='MIC', item= CN[C@H](CC(C)C)C(=O)N[C@H]1C(=O)N[C@@H](CC(N)=O)C(=O)N[C@H]2C(=O)N[C@H]3C(=O)N[C@H](C(=O)N[C@H](C(=O)NCC(=O)Nc4ccc(Cl)cc4Cl)c4cc(O)cc(O)c4-c4cc3ccc4O)[C@H](O)c3ccc(c(Cl)c3)Oc3cc2cc(c3O[C@@H]2O[C@H](CO)[C@@H](O)[C@H](O)[C@H]2O[C@H]2C[C@](C)(N)[C@H](O)[C@H](C)O2)Oc2ccc(cc2Cl)[C@H]1O )
OUT: 3.13
